Overview of reported log10 IC50 across a group of compounds:
System: Plasmodium falciparum
Assay: Antimalarial activity against chloroquine-sensitive Plasmodium falciparum 3D7 infected in human red blood cells assessed as inhibition of schizont stage parasite growth measured after 24 hrs by giemsa staining based assay
Type: functional, cell-based
Conditions: 3D7, 24 h
Answers are given as log10 of IC50 in µg/mL.

// known answers, use as guide
1. NS(=O)(=O)c1ccc(N2N=C(c3ccc(OCC4=NCCO4)cc3)CC2c2ccc(Cl)cc2)cc1 (centres undefined)	-0.33
2. CC(=O)N1N=C(c2ccc(OCC3=NCCO3)cc2)CC1c1ccc(Cl)cc1 (centres undefined)	-0.29
3. NS(=O)(=O)c1ccc(N2N=C(c3ccc(OCC4=NCCO4)cc3)CC2c2cccc(Cl)c2)cc1 (centres undefined)	-0.26
4. c1ccc(N2N=C(c3ccc(OCC4=NCCO4)cc3)CC2c2c[nH]c3ccccc23)cc1 (centres undefined)	-0.34
5. O=C(/C=C/c1ccc(O)cc1)c1ccc(OCC2=NCCO2)cc1	0.39

Q: Provide the documented log10 IC50 with Plasmodium falciparum as the system for COc1ccc(/C=C/C(=O)c2ccc(OCC3=NCCO3)cc2)cc1
Result: 0.20

Q: Provide the documented log10 IC50 with Plasmodium falciparum as the system for O=C(/C=C/c1ccc([N+](=O)[O-])cc1)c1ccc(OCC2=NCCO2)cc1
Result: -0.14

Q: Provide the documented log10 IC50 with Plasmodium falciparum as the system for COc1cccc(/C=C/C(=O)c2ccc(OCC3=NCCO3)cc2)c1
Result: 0.26

Q: Provide the documented log10 IC50 with Plasmodium falciparum as the system for NS(=O)(=O)c1ccc(N2N=C(c3ccc(OCC4=NCCO4)cc3)CC2c2ccc(F)cc2)cc1 (centres undefined)
Result: -0.38

Q: Provide the documented log10 IC50 with Plasmodium falciparum as the system for COc1ccc(C2CC(c3ccc(OCC4=NCCO4)cc3)=NN2c2ccccc2)cc1 (centres undefined)
Result: -0.26

Q: Provide the documented log10 IC50 with Plasmodium falciparum as the system for Clc1ccc(C2CC(c3ccc(OCC4=NCCO4)cc3)=NN2c2ccccc2)cc1 (centres undefined)
Result: -0.32

====

Test system: Plasmodium falciparum
Experiment: Antimalarial activity against chloroquine-sensitive Plasmodium falciparum 3D7 infected in human red blood cells assessed as inhibition of schizont stage parasite growth measured after 24 hrs by giemsa staining based assay
Format: functional, cell-based
Settings: 3D7, 24 h
Overview of reported log10 of IC50 across a group of molecules:
Answers are given as log10 of IC50 in µg/mL.

// known answers, use as guide
1) Cc1ccc(C2CC(c3ccc(OCC4=NCCO4)cc3)=NN2c2ccccc2)cc1 (stereo not drawn)	0.00
2) O=C(/C=C/c1ccc(Cl)cc1)c1ccc(OCC2=NCCO2)cc1	-0.25
3) COc1cccc(C2CC(c3ccc(OCC4=NCCO4)cc3)=NN2c2ccc(S(N)(=O)=O)cc2)c1 (stereo not drawn)	-0.38
4) O=C(/C=C/c1cccc(O)c1)c1ccc(OCC2=NCCO2)cc1	-0.29
5) O=C(/C=C/c1ccc(F)cc1)c1ccc(OCC2=NCCO2)cc1	-0.09

Q: What does the record list as log10 of IC50 for O=C(/C=C/c1cccc([N+](=O)[O-])c1)c1ccc(OCC2=NCCO2)cc1 ?
Result: 0.20

Q: What does the record list as log10 of IC50 for Fc1ccc(C2CC(c3ccc(OCC4=NCCO4)cc3)=NN2c2ccccc2)cc1 (stereo not drawn) ?
Result: -0.19

Q: What does the record list as log10 of IC50 for COc1ccc(C2CC(c3ccc(OCC4=NCCO4)cc3)=NN2c2ccc(S(N)(=O)=O)cc2)cc1 (stereo not drawn) ?
Result: -0.49

Q: What does the record list as log10 of IC50 for COc1ccc(C2CC(c3ccc(OCC4=NCCO4)cc3)=NN2)cc1 (stereo not drawn) ?
Result: 0.01

Q: What does the record list as log10 of IC50 for O=C(/C=C/c1ccc2c(c1)OCCO2)c1ccc(OCC2=NCCO2)cc1 ?
Result: 0.63

Q: What does the record list as log10 of IC50 for CC(=O)c1ccc(OCC2=NCCO2)cc1 ?
Result: -0.13

Q: What does the record list as log10 of IC50 for NS(=O)(=O)c1ccc(N2N=C(c3ccc(OCC4=NCCO4)cc3)CC2c2ccc3c(c2)OCCO3)cc1 (stereo not drawn) ?
Result: 0.33

Q: What does the record list as log10 of IC50 for O=C(/C=C/c1c[nH]c2ccccc12)c1ccc(OCC2=NCCO2)cc1 ?
Result: -0.03
